From: PubChem BioAssay (NCI)

- Test system: MDA-N
- Assay protocol: NCI tumour cell line growth inhibition, 48 h
Can you tell me TGI for the items I'm about to list?

Worked examples follow.
Nc1nc(-c2cccs2)cs1; > 100 µM
Cc1cc(O)c2c(c1)CC(O)C1=C2C(=O)c2c(O)ccc(OC3CC(O)C(OC4CC(OC5CCC(O)C(C)O5)C(O)C(C)O4)C(C)O3)c2C1=O (stereo not drawn); 3.74 µM
COc1ccc(C(SCC(N)C(=O)O)(c2ccc(OC)cc2)c2ccc(OC)cc2)cc1 (stereo not drawn); 12.7 µM

Hi! Can you tell me TGI for each of these compounds?
1. O=c1cc(-c2cccc(OCc3ccccc3)c2)[nH]c2cc3c(cc12)OCO3
2. c1cc(NC2=NCCO2)c2c(c1)OCO2

1. 0.417 µM
2. > 100 µM

Each compound below has a reported value. Please supply its TGI.
1. O=C(O)c1ccc(NNC(=O)c2cccc3c(=O)c4ccccc4[nH]c23)cc1
2. C=C(CN)CO[Si](C)(C)C(C)(C)C
3. CNC(=O)Nc1ccccc1

1: > 100 µM; 2: > 100 µM; 3: > 100 µM

---

- System: M14 melanoma
- Assay protocol: NCI tumour cell line growth inhibition, 48 h
Parameter measured: TGI

Check out these entries, answers already filled in.
Cc1nc2sc(C(=O)Nc3cccc(Br)c3)c(N)c2cc1C(O)c1ccccc1 (stereo unspecified); 29.7 µM
O=S(=O)(O)C(Cc1nc2ccccc2[nH]1)S(=O)(=O)OCCC1S(=O)(=O)OCCOS1(=O)=O (stereo unspecified); > 100 µM
Cc1ccc2c(c1)C=CC(C#N)N2C(=O)Oc1ccccc1 (stereo unspecified); > 100 µM
O=c1/c(=C/c2ccc([N+](=O)[O-])o2)sc2n1[C@@H](c1ccc3c(c1)OCO3)C=C(c1cc(F)c(Cl)cc1Cl)N=2; 31.8 µM

Hi! Can you tell me TGI for each of these molecules?
1. Cc1ccc(NC(=O)c2cc3ccccc3cc2O)c(C)c1.Cc1ccc(NC(=O)c2cc3ccccc3cc2[O-])c(C)c1.[Ni+2]
2. CC(CN)[C@@H]1CC[C@]2(CO)CC[C@]3(C)[C@H](CC[C@@H]4[C@@]5(C)CCC(N)C(C)(C)[C@@H]5CC[C@]43C)[C@@H]12 (stereo partly specified)
3. CCOC(=O)c1ccc(Nc2nc3cc(C(F)(F)F)ccc3nc2C(=O)OCC)cc1
4. CCN(CC)CCCNc1ncc(C)c2c1c1ccc3c(O)cccc3c1n2C
5. CCCCCC/C=C1\CCC(CN(C)C)C1=O (stereo unspecified)
6. COC(=O)C1=C(C)N(NC(N)=O)C(C)(O)C12CCOC2=O (stereo unspecified)

1. 13.9 µM
2. 3.76 µM
3. > 100 µM
4. 9.07 µM
5. 16.7 µM
6. > 100 µM

For each of the molecules below, state TGI.
1. COC(=O)/C=C1/OC(c2ccc(C)cc2)=C(Cl)C1=O
2. O=C(COc1ccc(Cl)cc1Cl)N/N=C/C=C/c1ccc([N+](=O)[O-])o1
3. Cc1nn(C)c2cc(N(C)c3ccnc(Nc4cccc(S(N)(=O)=O)c4)n3)ccc12
4. Nc1nc(-c2cccs2)cs1

1: 35.5 µM; 2: > 100 µM; 3: > 25 µM; 4: > 100 µM

---

- System: U251 CNS
- Assay protocol: NCI tumour cell line growth inhibition, 48 h
Parameter measured: TGI (µM)
Answers are plain numbers, in µM.

Worked examples, 3 compounds total:
CCN(CC)C(=S)SS(=O)(=O)c1ccc(NC(C)=O)cc1; 44.6
c1ccc2c3c(ccc2c1)-c1c(ccc2c(NCCCCN4CCCCC4)cccc12)C3; 3.16
COc1cc(C)c(NC(=O)CN(C)C)cc1Nc1nc(Nc2cccc(F)c2C(N)=O)c2cc[nH]c2n1; 6.86

Identify TGI associated with the compound COc1cc(Nc2nc3cc(C(F)(F)F)ccc3nc2C)cc(OC)c1OC
22.4
